src = ChEMBL document CHEMBL5143735

target: Metabotropic glutamate receptor 4 (Homo sapiens, UniProt Q14833); test: Agonist activity at mGlu4 receptor (unknown origin) expressed in human Flp-In-T-REx-293 cells by luciferase based GloSensor cAMP Assay
Sequence (Q14833 whole entry): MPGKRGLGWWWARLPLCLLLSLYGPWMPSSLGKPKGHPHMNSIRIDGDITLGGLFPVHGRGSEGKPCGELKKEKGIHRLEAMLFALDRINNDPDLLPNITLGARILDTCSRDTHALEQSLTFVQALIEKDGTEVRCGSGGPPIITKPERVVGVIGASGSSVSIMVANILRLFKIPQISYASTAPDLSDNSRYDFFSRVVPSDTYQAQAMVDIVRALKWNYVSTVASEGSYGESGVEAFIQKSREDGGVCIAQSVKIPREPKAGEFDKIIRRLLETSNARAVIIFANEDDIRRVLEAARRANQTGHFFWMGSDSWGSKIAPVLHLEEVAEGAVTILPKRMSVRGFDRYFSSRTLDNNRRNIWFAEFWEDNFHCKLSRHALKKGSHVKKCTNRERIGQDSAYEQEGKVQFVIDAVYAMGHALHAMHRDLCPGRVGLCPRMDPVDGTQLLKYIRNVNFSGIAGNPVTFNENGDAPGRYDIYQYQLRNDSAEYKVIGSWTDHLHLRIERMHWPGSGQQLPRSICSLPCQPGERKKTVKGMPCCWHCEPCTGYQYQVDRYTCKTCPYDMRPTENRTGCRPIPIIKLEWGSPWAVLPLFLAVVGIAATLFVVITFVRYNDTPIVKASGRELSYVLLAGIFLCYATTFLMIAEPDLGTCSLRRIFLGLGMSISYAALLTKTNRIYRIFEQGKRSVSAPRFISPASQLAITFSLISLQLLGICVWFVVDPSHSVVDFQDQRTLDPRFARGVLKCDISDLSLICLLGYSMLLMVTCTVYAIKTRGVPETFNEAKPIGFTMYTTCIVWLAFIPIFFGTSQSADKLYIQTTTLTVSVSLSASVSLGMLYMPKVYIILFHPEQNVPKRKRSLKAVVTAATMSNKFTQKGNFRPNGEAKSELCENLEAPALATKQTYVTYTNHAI
quantity: EC50

[[record]]
structure_notation = "Fc1ccc(N2CCN(Cc3ccn4c(CC5CC5)nnc4c3C(F)(F)F)CC2)c(Cl)c1"
quantity = "EC50"
result = "> 10 µM"

[[record]]
structure_notation = "Fc1cc(Cl)ccc1N1CCN(Cc2ccn3c(CC4CC4)nnc3c2C(F)(F)F)CC1"
quantity = "EC50"
result = "> 10 µM"

[[record]]
structure_notation = "O=C(c1cnc2c(cnn2CC2CC2)c1C(F)(F)F)N1CCN(c2ccc(F)cc2F)CC1"
quantity = "EC50"
result = "> 1 µM"

[[record]]
structure_notation = "Fc1ccc(N2CCN(Cc3cc(C(F)(F)F)cn4c(CC5CC5)nnc34)CC2)c(F)c1"
quantity = "EC50"
result = "> 10 µM"

[[record]]
structure_notation = "Fc1ccccc1N1CCN(Cc2ccn3c(CC4CC4)nnc3c2C(F)(F)F)CC1"
quantity = "EC50"
result = "> 10 µM"

